# target-system: d-enCas12a (Acidaminococcus sp., UniProt U2UMQ6 1-1307, E174R;S542R;K548R;D908A;E993A;D1235A)
# experiment-description: Spec-seq (native PAGE EMSA with sequencing of bound and unbound); 25 mM Tris-HCl pH 7.4, 150 mM KCl, 5 mM MgCl2, 10% glycerol, 1 mM DTT, 40 ng/uL salmon sperm DNA; 400 nM Cas12a, 480 nM crRNA, 50 nM library, 37 C 1 h; native PAGE at room temperature; high values mean tight binding;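 also: relative affinity from the bound to unbound sequence frequency ratio in Spec-seq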
# recorded-conditions: protein: recombinant
Lab note: compare binding signal with -1 lnKA, writing Satisfied if less and Not satisfied if equal or more.

Take a look at these entries with their results.
TCCC (dsDNA) DNA 1: GCTATCTAGTGCTCAGTACGCACTGTCCCAGGAAACTTCTGGCAGGACCAGGTCATGAGATCGGAAGAGCACACGTCTGAACTCCAGTCA DNA 2: TGACTGGAGTTCAGACGTGTGCTCTTCCGATCTCATGACCTGGTCCTGCCAGAAGTTTCCTGGGACAGTGCGTACTGAGCACTAGATAGC RNA: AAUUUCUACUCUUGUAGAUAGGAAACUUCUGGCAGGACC: Not satisfied
TCCT (dsDNA) DNA 1: GCTATCTAGTGCTCAGTACGCACTGTCCTAGGAAACTTCTGGCAGGACCAGGTCATGAGATCGGAAGAGCACACGTCTGAACTCCAGTCA DNA 2: TGACTGGAGTTCAGACGTGTGCTCTTCCGATCTCATGACCTGGTCCTGCCAGAAGTTTCCTAGGACAGTGCGTACTGAGCACTAGATAGC RNA: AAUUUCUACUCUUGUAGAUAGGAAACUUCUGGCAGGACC: Satisfied
CTCC (dsDNA) DNA 1: GCTATCTAGTGCTCAGTACGCACTGCTCCAGGAAACTTCTGGCAGGACCAGGTCATGAGATCGGAAGAGCACACGTCTGAACTCCAGTCA DNA 2: TGACTGGAGTTCAGACGTGTGCTCTTCCGATCTCATGACCTGGTCCTGCCAGAAGTTTCCTGGAGCAGTGCGTACTGAGCACTAGATAGC RNA: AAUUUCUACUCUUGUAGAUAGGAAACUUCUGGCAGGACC: Not satisfied
GCAG (dsDNA) DNA 1: GCTATCTAGTGCTCAGTACGCACTGGCAGAGGAAACTTCTGGCAGGACCAGGTCATGAGATCGGAAGAGCACACGTCTGAACTCCAGTCA DNA 2: TGACTGGAGTTCAGACGTGTGCTCTTCCGATCTCATGACCTGGTCCTGCCAGAAGTTTCCTCTGCCAGTGCGTACTGAGCACTAGATAGC RNA: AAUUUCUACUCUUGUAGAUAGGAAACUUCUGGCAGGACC: Satisfied

Next up:
Say whether its binding signal is strictly beneath -1 lnKA. Entry: CCTC (dsDNA) DNA 1: GCTATCTAGTGCTCAGTACGCACTGCCTCAGGAAACTTCTGGCAGGACCAGGTCATGAGATCGGAAGAGCACACGTCTGAACTCCAGTCA DNA 2: TGACTGGAGTTCAGACGTGTGCTCTTCCGATCTCATGACCTGGTCCTGCCAGAAGTTTCCTGAGGCAGTGCGTACTGAGCACTAGATAGC RNA: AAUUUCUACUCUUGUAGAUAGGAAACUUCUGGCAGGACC Satisfied
